molecular target: GST-tagged human ROCK2 catalytic domain 1-553 (Homo sapiens); construct: GST-tagged human ROCK2 catalytic domain 1-553 from Carna Biosciences (Cat #01-110); purchased Carna Biosciences 01-110; host or cells: baculovirus expression system; test: Isolated Enzyme Assay, ROCK2 (LANCE Ultra ULight-CREBtide FRET); type: biochemical; conditions: isolated enzyme assay; 30 μM highest concentration tested; read-out: Results from Isolated Enzyme Assay IC50 (μM) ROCK2
Sequence (O75116 1-553): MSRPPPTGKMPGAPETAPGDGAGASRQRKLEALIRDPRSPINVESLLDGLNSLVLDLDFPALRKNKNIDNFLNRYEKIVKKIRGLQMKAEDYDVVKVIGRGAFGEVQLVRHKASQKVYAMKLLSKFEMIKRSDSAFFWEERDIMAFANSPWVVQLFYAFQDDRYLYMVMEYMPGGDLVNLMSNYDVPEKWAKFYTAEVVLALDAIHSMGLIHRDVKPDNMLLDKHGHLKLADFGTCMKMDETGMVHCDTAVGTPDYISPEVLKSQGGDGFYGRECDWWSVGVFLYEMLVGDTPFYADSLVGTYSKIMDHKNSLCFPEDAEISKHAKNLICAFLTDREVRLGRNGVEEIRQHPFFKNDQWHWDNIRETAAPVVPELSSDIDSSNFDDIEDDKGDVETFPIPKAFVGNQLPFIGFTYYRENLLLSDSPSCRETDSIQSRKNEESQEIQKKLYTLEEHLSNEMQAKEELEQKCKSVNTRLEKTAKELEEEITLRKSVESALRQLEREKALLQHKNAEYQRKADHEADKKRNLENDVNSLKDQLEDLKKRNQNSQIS
reported metric: IC50

// known answers, use as guide
Cn1cc(-c2nsc(Nc3ccc4[nH]ncc4c3Cl)n2)cc(C(=O)O)c1=O | > 30 µM
O=C(Nc1cc(-c2nsc(Nc3ccc4[nH]ncc4c3Cl)n2)ccn1)c1cnco1 | < 1 µM
COc1ccc(C(=O)Nc2cc(C)nc(-c3nsc(Nc4ccc5[nH]ncc5c4Cl)n3)c2)cc1 | > 30 µM

get_value(item= Cc1coc(-c2cc(CO)cc(-c3nsc(Nc4ccc5[nH]ncc5c4Cl)n3)c2)n1 , readout=IC50) returns < 1 µM

Input O=C(Nc1cccc(-c2nsc(Nc3ccc4[nH]ncc4c3Cl)n2)c1)c1nc(O)co1 . Output IC50: < 1 µM

###

molecular target: ROCK1 (Homo sapiens); construct: endogenous in cells; host or cells: HAP1 knockout cells; test: Cell-Based Assay, ROCK1 (HAP1 knockout cells, phospho-MYPT1 Thr853 ELISA); conditions: phospho-MYPT1, 30 μM highest concentration tested, read-out: Results from Cell-Based Assay IC50 (μM) ROCK1
Sequence (Q13464 whole entry): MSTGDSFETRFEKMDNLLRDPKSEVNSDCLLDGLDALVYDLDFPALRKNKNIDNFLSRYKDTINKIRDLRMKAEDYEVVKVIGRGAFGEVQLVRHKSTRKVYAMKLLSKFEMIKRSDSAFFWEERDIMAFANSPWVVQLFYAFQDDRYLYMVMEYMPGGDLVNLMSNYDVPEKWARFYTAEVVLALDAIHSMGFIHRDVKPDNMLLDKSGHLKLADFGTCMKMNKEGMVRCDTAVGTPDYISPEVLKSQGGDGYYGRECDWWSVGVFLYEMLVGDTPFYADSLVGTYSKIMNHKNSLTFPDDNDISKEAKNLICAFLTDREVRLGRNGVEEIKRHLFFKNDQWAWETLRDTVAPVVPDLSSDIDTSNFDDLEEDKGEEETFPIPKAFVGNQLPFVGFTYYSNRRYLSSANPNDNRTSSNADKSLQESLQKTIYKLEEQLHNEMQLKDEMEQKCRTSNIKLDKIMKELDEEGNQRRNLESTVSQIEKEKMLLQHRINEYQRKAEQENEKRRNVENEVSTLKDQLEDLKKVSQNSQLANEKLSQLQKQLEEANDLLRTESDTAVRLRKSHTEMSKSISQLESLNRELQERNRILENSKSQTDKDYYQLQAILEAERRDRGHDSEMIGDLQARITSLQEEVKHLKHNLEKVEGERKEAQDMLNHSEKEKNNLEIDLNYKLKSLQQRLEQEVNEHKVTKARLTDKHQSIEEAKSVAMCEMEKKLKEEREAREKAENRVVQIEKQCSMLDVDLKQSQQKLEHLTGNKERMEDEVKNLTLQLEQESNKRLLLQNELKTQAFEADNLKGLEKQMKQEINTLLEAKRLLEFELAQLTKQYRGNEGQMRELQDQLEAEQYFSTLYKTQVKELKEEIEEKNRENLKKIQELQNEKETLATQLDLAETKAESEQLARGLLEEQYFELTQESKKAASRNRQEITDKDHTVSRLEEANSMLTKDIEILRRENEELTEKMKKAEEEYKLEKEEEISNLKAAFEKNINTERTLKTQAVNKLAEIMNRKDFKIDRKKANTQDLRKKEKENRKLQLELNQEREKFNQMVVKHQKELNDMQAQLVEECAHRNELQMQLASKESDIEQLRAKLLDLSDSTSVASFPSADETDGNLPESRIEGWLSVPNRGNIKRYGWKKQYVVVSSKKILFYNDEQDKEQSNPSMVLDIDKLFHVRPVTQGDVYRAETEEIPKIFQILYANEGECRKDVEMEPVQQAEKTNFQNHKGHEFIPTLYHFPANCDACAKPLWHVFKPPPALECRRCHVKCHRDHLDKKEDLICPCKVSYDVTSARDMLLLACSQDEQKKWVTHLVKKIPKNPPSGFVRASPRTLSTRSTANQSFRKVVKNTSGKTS
reported metric: IC50

Cc1ccncc1C(=O)Nc1cccc(-c2nsc(Nc3ccc4[nH]ncc4c3Cl)n2)c1 | 1 to 15 µM

Consider Cn1nccc1C(=O)Nc1cccc(-c2nsc(Nc3ccc4[nH]ncc4c3Cl)n2)c1 . Its measured IC50 is 1 to 15 µM

###

molecular target: GST-tagged human ROCK1 catalytic domain 1-477 (Homo sapiens); construct: human ROCK1 catalytic domain 1-477 from Carna Biosciences (cat #01-109); purchased Carna Biosciences 01-109; host or cells: baculovirus expression system; test: Isolated Enzyme Assay, ROCK1 (LANCE Ultra ULight-CREBtide FRET); type: biochemical; conditions: isolated enzyme assay; 30 μM highest concentration tested; read-out: Results from Isolated Enzyme Assay IC50 (μM) ROCK1
Measured IC50 of individual entries

Use the examples below as a reference point.
Cc1nc2ccccc2c(=O)n1-c1cccc(-c2nsc(Nc3ccc4[nH]ncc4c3Cl)n2)c1 | > 30 µM
Cn1nccc1C(=O)NC[C@@H]1CCN(c2nsc(Nc3ccc4[nH]ncc4c3Cl)n2)C1 | > 30 µM

# IC50 of CN(C)C(=O)c1cccc(-c2nsc(Nc3ccc4[nH]ncc4c3Cl)n2)c1 = > 30 µM

// sample Cc1cc(=O)n(-c2cc(-c3nsc(Nc4ccc5[nH]ncc5c4Cl)n3)ccn2)n1C , its IC50 was < 1 µM

Field IC50 (entry CN1CCN(C(=O)c2cccc(-c3nsc(Nc4ccc5[nH]ncc5c4Cl)n3)c2)CC1 ) reads 1 to 15 µM

Entry Cc1cc(NC(=O)c2ccnn2C)cc(-c2nsc(Nc3ccc4[nH]ncc4c3Cl)n2)n1 ; IC50 = < 1 µM

Noted for O=C(NC1CCCC1)c1cc(-c2nsc(Nc3ccc4[nH]ncc4c3Cl)n2)ccc1F : its IC50 reads < 1 µM

For record O=C(Nc1cc(-c2nsc(Nc3ccc4[nH]ncc4c3Cl)n2)ccn1)c1ccccc1F the listed IC50 is > 30 µM

IC50 for CNC(=O)c1cc(-c2nsc(Nc3ccc4[nH]ncc4c3Cl)n2)cn(C)c1=O is < 1 µM

###

molecular target: GST-tagged human ROCK1 catalytic domain 1-477 (Homo sapiens, UniProt Q13464); construct: human ROCK1 catalytic domain 1-477 from Carna Biosciences (cat #01-109); purchased Carna Biosciences 01-109; host or cells: baculovirus expression system; test: Isolated Enzyme Assay, ROCK1 (LANCE Ultra ULight-CREBtide FRET); type: biochemical; conditions: isolated enzyme; 30 μM highest concentration tested; read-out: Results from Isolated Enzyme Assay IC50 (μM) ROCK1
reported metric: IC50

O=C(Nc1cccc(-c2nsc(Nc3ccc4[nH]ncc4c3)n2)c1)c1c[nH]cn1 | 1 to 15 µM

Now, please, on to the next compound.
IC50 measured on Cn1nccc1C(=O)Nc1cncc(-c2nsc(Nc3ccc4[nH]ncc4c3Cl)n2)c1 = > 30 µM

###

target: GST-tagged human ROCK2 catalytic domain 1-553 (Homo sapiens); construct: GST-tagged human ROCK2 catalytic domain 1-553 from Carna Biosciences (Cat #01-110); purchased Carna Biosciences 01-110; host or cells: baculovirus expression system; test: Isolated Enzyme Assay, ROCK2 (LANCE Ultra ULight-CREBtide FRET); assay type: biochemical; conditions: isolated enzyme assay; 30 μM highest concentration tested; read-out: Results from Isolated Enzyme Assay IC50 (μM) ROCK2
reported metric: IC50

Worked cases, answers included:
Cn1cc(-c2nsc(Nc3ccc4[nH]ncc4c3Cl)n2)cc(N2CCOC2=O)c1=O [IV-4] | < 1 µM
O=C(Nc1cc(-c2nsc(Nc3ccc4[nH]ncc4c3Cl)n2)ccn1)c1ccccc1F [IV-60] | > 30 µM
O=C(Nc1cccnc1)c1cccc(-c2nsc(Nc3ccc4[nH]ncc4c3Cl)n2)c1 [IV-65] | < 1 µM
CC(C)c1cc(C(=O)Nc2cccc(-c3nsc(Nc4ccc5[nH]ncc5c4Cl)n3)c2)n(C)n1 [IV-63] | < 1 µM
Cn1cc(-c2nsc(Nc3ccc4[nH]ncc4c3Cl)n2)cc(NC(=O)c2ccccc2)c1=O [IV-39] | < 1 µM
Cc1cc(NC(=O)c2cc(C)nn2C)cc(-c2nsc(Nc3ccc4[nH]ncc4c3Cl)n2)n1 [IV-37] | < 1 µM
Cn1cc(-c2nsc(Nc3ccc4[nH]ncc4c3Cl)n2)cc(NC(=O)c2ccccc2F)c1=O [IV-50] | < 1 µM
O=C(NC(CO)CO)c1cc(-c2nsc(Nc3ccc4[nH]ncc4c3Cl)n2)ccc1F [IV-21] | < 1 µM
Cn1cc(C(=O)Nc2cccc(-c3nsc(Nc4ccc5[nH]ncc5c4Cl)n3)c2)c(C(F)(F)F)n1 [IV-72] | < 1 µM
Cc1nc2ccccc2c(=O)n1-c1cccc(-c2nsc(Nc3ccc4[nH]ncc4c3Cl)n2)c1 [IV-111] | 1 to 15 µM

IC50 for Cc1coc(-c2cccc(-c3nsc(Nc4ccc5[nH]ncc5c4F)n3)c2)n1 [IV-15] is < 1 µM

COc1ncc(C(=O)Nc2cccc(-c3nsc(Nc4ccc5[nH]ncc5c4Cl)n3)c2)cn1 [IV-70] yielded IC50 of < 1 µM

Measured IC50 of Cn1nccc1C(=O)NC[C@@H]1CCN(c2nsc(Nc3ccc4[nH]ncc4c3Cl)n2)C1 [IV-94] : > 30 µM

###

target: GST-tagged human ROCK1 catalytic domain 1-477 (Homo sapiens, UniProt Q13464); construct: human ROCK1 catalytic domain 1-477 from Carna Biosciences (cat #01-109); purchased Carna Biosciences 01-109; host or cells: baculovirus expression system; test: Isolated Enzyme Assay, ROCK1 (LANCE Ultra ULight-CREBtide FRET); type: biochemical; settings: isolated enzyme assay; 30 μM highest concentration tested; read-out: Results from Isolated Enzyme Assay IC50 (μM) ROCK1
Items are presented alongside their recorded IC50.

Reference set (8 entries):
Cn1cc(-c2nsc(Nc3ccc4[nH]ncc4c3Cl)n2)cc(C(=O)O)c1=O [IV-91] | > 30 µM
Cn1nccc1C(=O)NC[C@@H]1CCCN1c1nsc(Nc2ccc3[nH]ncc3c2Cl)n1 [IV-110] | > 30 µM
Cc1cn2cccc(-c3nsc(Nc4ccc5[nH]ncc5c4Cl)n3)c2n1 [IV-89] | < 1 µM
Cc1cnc(-c2cc(-c3nsc(Nc4ccc5[nH]ncc5c4Cl)n3)cn(C)c2=O)o1 [IV-12] | < 1 µM
Cn1nccc1C(=O)Nc1cc(-c2nsc(Nc3ccc4[nH]ncc4c3Cl)n2)cn(C)c1=O [IV-6] | < 1 µM
COc1ncc(C(=O)Nc2cc(-c3nsc(Nc4ccc5[nH]ncc5c4Cl)n3)cn(C)c2=O)cn1 [IV-7] | > 30 µM
CC(C)NC(=O)COc1cccc(-c2nsc(Nc3ccc4[nH]ncc4c3Cl)n2)c1 [IV-9] | < 1 µM
NC[C@@H]1CCCN1c1nsc(Nc2ccc3[nH]ncc3c2Cl)n1 [IV-109] | 15 to 30 µM

Reported IC50 for Cc1cc(NC(=O)c2cn(C)cn2)cc(-c2nsc(Nc3ccc4[nH]ncc4c3Cl)n2)n1 [IV-26] was < 1 µM

###

target: GST-tagged human ROCK1 catalytic domain 1-477 (Homo sapiens, UniProt Q13464); construct: human ROCK1 catalytic domain 1-477 from Carna Biosciences (cat #01-109); purchased Carna Biosciences 01-109; host or cells: baculovirus expression system; experiment: Isolated Enzyme Assay, ROCK1 (LANCE Ultra ULight-CREBtide FRET); type: biochemical; details: isolated enzyme assay; 30 μM highest concentration tested; read-out: Results from Isolated Enzyme Assay IC50 (μM) ROCK1
The entries below come with measured IC50 values attached.

Some compounds with recorded IC50:
Oc1ccn(-c2cccc(-c3nsc(Nc4ccc5[nH]ncc5c4Cl)n3)c2)n1 | < 1 µM
CC(C)(O)CNC(=O)c1cc(-c2nsc(Nc3ccc4[nH]ncc4c3Cl)n2)ccc1F | < 1 µM
Cc1cc(C(=O)Nc2cc(-c3nsc(Nc4ccc5[nH]ncc5c4Cl)n3)ccn2)n(C)n1 | > 30 µM
CS(=O)(=O)Nc1cccc(-c2nsc(Nc3ccc4[nH]ncc4c3Cl)n2)c1 | 1 to 15 µM
Cn1cc(-c2nsc(Nc3ccc4[nH]ncc4c3Cl)n2)cc(N2CCCC2=O)c1=O | > 30 µM

Entry O=C(Nc1ccccn1)c1cccc(-c2nsc(Nc3ccc4[nH]ncc4c3Cl)n2)c1 — recorded IC50 = < 1 µM
